tested on: CCRIS mutagenicity, Ames/micronucleus/aberration tests; experiment: CCRIS mutagenicity studies; conditions: Test System: AMES SALMONELLA TYPHIMURIUM; Strain/Indicator: TA100; Metabolic Activation: NONE; Method: STANDARD PLATE
Calls of active or inactive are those of the source. How the calls were made is not given here.

| Compound | mutagenic call |
| --- | --- |
| CC(O)CCC(=O)c1ccoc1 (stereo not drawn) | inactive; negative |
| C/C=N/O | inactive; negative |
| O=C(O)c1cccc2cccnc12 | inactive; negative |

---

system: CCRIS mutagenicity, Ames/micronucleus/aberration tests; experiment: CCRIS mutagenicity studies; settings: Test System: AMES SALMONELLA TYPHIMURIUM; Strain/Indicator: TA1538; Metabolic Activation: RAT, LIVER, S-9, AROCLOR 1254; Method: STANDARD PLATE
Active and inactive are the calls of the source. How the calls were made is not given here.
Outcome codes: t = active, f = inactive

| Compound | Tgt | Category label |
| --- | --- | --- |
| COc1cc(O)c2c(=O)c(O)c(-c3ccc(O)c(O)c3)oc2c1 | CCRIS mutagenicity, Ames/micronucleus/aberration tests | f |
| C1=Cc2cc3c4ccccc4ccc3c3cccc1c23 | CCRIS mutagenicity, Ames/micronucleus/aberration tests | t |
| C=C(C)C(=O)OCC(C)(C)C | CCRIS mutagenicity, Ames/micronucleus/aberration tests | f |
| ON=C1CCCCC1 | CCRIS mutagenicity, Ames/micronucleus/aberration tests | f |
| CC1=CCC(C(C)(C)O)CC1 (centres undefined) | CCRIS mutagenicity, Ames/micronucleus/aberration tests | f |
| CN(C)c1ccc([C@H]2C[C@@]3(C)[C@@H](CC[C@@]3(O)/C=C\CO)[C@@H]3CCC4=CC(=O)CCC4=C32)cc1 | CCRIS mutagenicity, Ames/micronucleus/aberration tests | f |
| N=c1cc2oc3cc(N)ccc3nc-2c2ccccc12 | CCRIS mutagenicity, Ames/micronucleus/aberration tests | t |
| Nc1ccc2c(c1)Cc1cc(N)ccc1-2 | CCRIS mutagenicity, Ames/micronucleus/aberration tests | t |
| C1CCC2CCCCC2C1 (centres undefined) | CCRIS mutagenicity, Ames/micronucleus/aberration tests | f |
| O=[N+]([O-])c1ccc(NO)cc1 | CCRIS mutagenicity, Ames/micronucleus/aberration tests | t |
| C[C@@H]1O[C@@H](OC[C@H]2O[C@@H](Oc3c(-c4ccc(OCCO)c(OCCO)c4)oc4cc(OCCO)cc(O)c4c3=O)[C@H](O)[C@@H](O)[C@@H]2O)[C@H](O)[C@H](O)[C@H]1O | CCRIS mutagenicity, Ames/micronucleus/aberration tests | f |
| CC(O)CCC(=O)c1ccoc1 (centres undefined) | CCRIS mutagenicity, Ames/micronucleus/aberration tests | f |
| C[C@]12C=CC3=C4CCC(=O)C=C4CC[C@H]3[C@@H]1CC[C@H]2O | CCRIS mutagenicity, Ames/micronucleus/aberration tests | f |
| C=C(C)C(=O)OCCOCCOC(=O)C(=C)C | CCRIS mutagenicity, Ames/micronucleus/aberration tests | f |

---

system: CCRIS mutagenicity, Ames/micronucleus/aberration tests; assay: CCRIS mutagenicity studies; conditions: Test System: AMES SALMONELLA TYPHIMURIUM; Strain/Indicator: TA97; Metabolic Activation: RAT, LIVER, S-9, AROCLOR 1254; Method: STANDARD PLATE
Calls of active or inactive are those of the source. The rule behind the calls is not given here.
Outcome codes: active, inactive

| Compound | Category label |
| --- | --- |
| ClCCl | active |
| CC(C)CC(NC(=O)COc1ccc(Cl)cc1Cl)C(=O)O (stereo not given) | inactive |
| c1ccc(-c2ccccc2)cc1 | inactive |
| ClC1=C(Cl)[C@]2(Cl)[C@@H]3[C@@H]4C[C@@H]([C@H]5O[C@@H]45)[C@@H]3[C@@]1(Cl)C2(Cl)Cl | inactive |
| CCOC(=O)c1[nH]c2ccccc2c1N=Cc1ccc(C)cc1 | inactive |
| COc1ccc(CN(CC[N+](C)(C)[O-])c2ccccn2)cc1 | inactive |
| O=C(O)COc1ccc2ccccc2c1 | inactive |
| CN(C)c1ccc(C(=N)c2ccc(N(C)C)cc2)cc1 | inactive |
| Clc1cncc(Cl)c1 | inactive |
| COc1cc(O)c2c(=O)c(O)c(-c3ccc(O)c(O)c3)oc2c1 | active |
